target.under.test: α-Glucosidase (Saccharomyces cerevisiae, UniProt P53341)
Sequence (P53341 whole entry): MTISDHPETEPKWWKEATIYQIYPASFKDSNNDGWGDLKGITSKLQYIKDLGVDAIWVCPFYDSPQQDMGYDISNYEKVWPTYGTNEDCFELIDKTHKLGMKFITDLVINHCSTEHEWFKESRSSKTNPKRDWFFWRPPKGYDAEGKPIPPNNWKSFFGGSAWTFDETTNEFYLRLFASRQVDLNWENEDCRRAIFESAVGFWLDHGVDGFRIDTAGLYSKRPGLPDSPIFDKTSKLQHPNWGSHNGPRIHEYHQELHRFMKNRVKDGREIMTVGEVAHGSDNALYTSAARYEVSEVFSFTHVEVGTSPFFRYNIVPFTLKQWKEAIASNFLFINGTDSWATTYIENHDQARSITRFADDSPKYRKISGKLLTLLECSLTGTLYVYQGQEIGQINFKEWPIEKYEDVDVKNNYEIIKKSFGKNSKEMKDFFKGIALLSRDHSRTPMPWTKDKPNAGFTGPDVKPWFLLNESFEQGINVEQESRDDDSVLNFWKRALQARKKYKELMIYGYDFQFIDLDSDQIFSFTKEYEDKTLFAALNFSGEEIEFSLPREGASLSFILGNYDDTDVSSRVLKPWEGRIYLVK
assay.details: α-Glucosidase inhibition assay
Assay type: biochemical
measurement.type: Type of Inhibition (α-glucosidase and α-amylase)

# example entries with known answers
>>> assay_result("C=CCN(c1nccs1)S(=O)(=O)c1ccc(Br)cc1")
"Competitive"
>>> assay_result("C=CCN(c1nccs1)S(=O)(=O)c1ccc(C)cc1")
"Competitive"
>>> assay_result("CN(c1nccs1)S(=O)(=O)c1ccccc1")
"Non-competitive"
>>> assay_result("Cc1ccc(S(=O)(=O)N(Cc2ccccc2)c2nccs2)cc1")
"Competitive"
>>> assay_result("O=S(=O)(c1ccc(Br)cc1)N(Cc1ccccc1)c1nccs1")
"Competitive"

input: Item COc1ccc(S(=O)(=O)N(C)c2nccs2)cc1 with α-Glucosidase (Saccharomyces cerevisiae, UniProt P53341) - Type of Inhibition (α-glucosidase and α-amylase)?
output: Non-competitive

input: Item C=CCN(c1nccs1)S(=O)(=O)c1ccc(OC)cc1 with α-Glucosidase (Saccharomyces cerevisiae, UniProt P53341) - Type of Inhibition (α-glucosidase and α-amylase)?
output: Non-competitive

---

assay.details: ABTS method
condition.notes: 40 μM
measurement.type: ABTS % Scavenging
Dear colleague, please send the value followed by its unit.

>>> assay_result("CN(c1nccs1)S(=O)(=O)c1ccc(Cl)cc1 [Compound 37]")
"65.5 ± 0.07%"
>>> assay_result("C=CCN(c1nccs1)S(=O)(=O)c1ccc(Br)cc1 [Compound 28]")
"55.7 ± 0.22%"
>>> assay_result("Cc1ccc(S(=O)(=O)N(C)c2nccs2)cc1 [Compound 33]")
"72.02 ± 0.07%"

input: Quick check: ABTS % Scavenging of COc1ccc(S(=O)(=O)N(C)c2nccs2)cc1 [Compound 34] ?
output: 69.8 ± 0.03%

input: Quick check: ABTS % Scavenging of O=S(=O)(c1ccc(F)cc1)N(Cc1ccccc1)c1nccs1 [Compound 24] ?
output: 48.23 ± 0.51%

---

target.under.test: jack bean urease (Canavalia ensiformis, UniProt P07374)
Sequence (P07374 whole entry, looked up): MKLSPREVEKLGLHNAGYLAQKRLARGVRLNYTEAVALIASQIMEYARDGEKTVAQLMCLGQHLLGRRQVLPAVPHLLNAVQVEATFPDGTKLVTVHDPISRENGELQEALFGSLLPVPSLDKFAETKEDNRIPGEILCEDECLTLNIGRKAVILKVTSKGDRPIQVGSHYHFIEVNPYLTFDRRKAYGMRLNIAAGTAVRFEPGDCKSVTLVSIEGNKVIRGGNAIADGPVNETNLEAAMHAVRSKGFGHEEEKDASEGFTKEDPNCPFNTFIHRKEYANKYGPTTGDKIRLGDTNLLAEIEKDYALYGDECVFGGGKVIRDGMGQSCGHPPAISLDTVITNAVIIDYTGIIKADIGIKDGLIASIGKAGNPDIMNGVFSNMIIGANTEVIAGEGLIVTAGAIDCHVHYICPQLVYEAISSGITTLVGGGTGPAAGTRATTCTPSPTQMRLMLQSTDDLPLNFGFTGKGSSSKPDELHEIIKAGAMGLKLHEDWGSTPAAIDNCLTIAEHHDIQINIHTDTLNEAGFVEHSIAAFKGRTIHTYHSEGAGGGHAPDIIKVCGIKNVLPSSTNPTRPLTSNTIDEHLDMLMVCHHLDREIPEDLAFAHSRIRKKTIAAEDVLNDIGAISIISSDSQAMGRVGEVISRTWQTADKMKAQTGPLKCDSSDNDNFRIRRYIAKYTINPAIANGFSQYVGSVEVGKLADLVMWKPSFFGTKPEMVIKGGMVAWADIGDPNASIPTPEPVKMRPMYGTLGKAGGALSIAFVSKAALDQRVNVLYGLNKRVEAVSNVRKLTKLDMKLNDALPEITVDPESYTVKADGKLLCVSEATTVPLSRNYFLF
assay.details: Urease inhibition assay
Format: biochemical
condition.notes: read-out: Enzyme (SEM ±) J.B Urease, IC50; mean ± SEM, 3 experiments
measurement.type: IC50

input: Quick check: IC50 of NC(N)=S [Thiourea, reference compound] ?
output: 10.1 µM

---

assay.details: Superoxide anion scavenging assay
condition.notes: read-out: superoxide anion scavenging IC50
pIC50 for assorted molecules
Convention used: pIC50 is expressed as -log10 of the molar concentration.

# example entries with known answers
>>> assay_result("O=S(=O)(c1ccc(Br)cc1)N(Cc1ccccc1)c1nccs1 [Compound 21]")
4.35
>>> assay_result("COc1ccc(S(=O)(=O)N(C)c2nccs2)cc1 [Compound 34]")
4.28
>>> assay_result("Cc1ccc(S(=O)(=O)N(C)c2nccs2)cc1 [Compound 33]")
4.42
>>> assay_result("O=S(=O)(c1ccc(F)cc1)N(Cc1ccccc1)c1nccs1 [Compound 24]")
4.23
>>> assay_result("Cc1ccc(S(=O)(=O)N(Cc2ccccc2)c2nccs2)cc1 [Compound 19]")
4.38

input: Quick check: pIC50 of CN(c1nccs1)S(=O)(=O)c1ccc(F)cc1 [Compound 38] ?
output: 4.17

input: Quick check: pIC50 of O=S(=O)(c1ccccc1)N(Cc1ccccc1)c1nccs1 [Compound 22] ?
output: 4.40

---

assay.details: Superoxide anion scavenging assay
condition.notes: 25 μM
Just a reminder that ties go to condition not met: only superoxide anion % scavenging strictly below 30% counts as condition met.

Would you please look over these solved cases?
>>> discrete_label("CN(c1nccs1)S(=O)(=O)c1ccc(Cl)cc1 [Compound 37]")
"condition not met"
>>> discrete_label("C=CCN(c1nccs1)S(=O)(=O)c1ccc(F)cc1 [Compound 31]")
"condition met"
>>> discrete_label("Cc1ccc(S(=O)(=O)N(Cc2ccccc2)c2nccs2)cc1 [Compound 19]")
"condition not met"
>>> discrete_label("Cc1ccc(S(=O)(=O)N(C)c2nccs2)cc1 [Compound 33]")
"condition met"

input: Determine whether this molecule shows superoxide anion % scavenging lower than 30% (ties excluded): CN(c1nccs1)S(=O)(=O)c1ccc([N+](=O)[O-])cc1 [Compound 39]
output: condition met

---

pIC50 for assorted compounds
assay.details: Superoxide anion scavenging assay
condition.notes: read-out: superoxide anion scavenging IC50
Convention used: pIC50 is expressed as -log10 of the molar concentration.

# example entries with known answers
>>> assay_result("C=CCN(c1nccs1)S(=O)(=O)c1ccc(Cl)cc1 [Compound 30]")
4.37
>>> assay_result("O=S(=O)(c1ccc(Cl)cc1)N(Cc1ccccc1)c1nccs1 [Compound 23]")
4.33

input: Quick check: pIC50 of CN(c1nccs1)S(=O)(=O)c1ccc([N+](=O)[O-])cc1 [Compound 39] ?
output: 4.27

input: Quick check: pIC50 of CN(c1nccs1)S(=O)(=O)c1ccccc1 [Compound 36] ?
output: 4.24

input: Quick check: pIC50 of C=CCN(c1nccs1)S(=O)(=O)c1ccc(OC)cc1 [Compound 27] ?
output: 4.35

---

assay.details: DPPH free radical scavenging activity
condition.notes: 50 μM
Give true (1) when the value for DPPH % Scavenging is at least 50%. Give false (0) when it is less.

Would you please look over these solved cases?
>>> discrete_label("C=CCN(c1nccs1)S(=O)(=O)c1ccc(F)cc1")
"false (0)"
>>> discrete_label("C=CCN(c1nccs1)S(=O)(=O)c1ccc(Br)cc1")
"true (1)"
>>> discrete_label("CN(c1nccs1)S(=O)(=O)c1ccccc1")
"true (1)"
>>> discrete_label("COc1ccc(S(=O)(=O)N(C)c2nccs2)cc1")
"true (1)"
>>> discrete_label("C=CCN(c1nccs1)S(=O)(=O)c1ccc([N+](=O)[O-])cc1")
"true (1)"

We now examine a further molecule.
input: Test whether the molecule C=CCN(c1nccs1)S(=O)(=O)c1ccc(Cl)cc1 records DPPH % Scavenging of 50% or higher.
output: false (0)

---

assay.details: Superoxide anion scavenging assay
condition.notes: 25 μM
measurement.type: superoxide anion % scavenging (%)
Report as a plain number; the unit % is understood.

# example entries with known answers
>>> assay_result("C=CCN(c1nccs1)S(=O)(=O)c1ccc(OC)cc1")
25
>>> assay_result("C=CCN(c1nccs1)S(=O)(=O)c1ccc([N+](=O)[O-])cc1")
15

input: Quick check: superoxide anion % scavenging of C=CCN(c1nccs1)S(=O)(=O)c1ccc(C)cc1 ?
output: 27

input: Quick check: superoxide anion % scavenging of CN(c1nccs1)S(=O)(=O)c1ccc(Br)cc1 ?
output: 27

input: Quick check: superoxide anion % scavenging of C=CCN(c1nccs1)S(=O)(=O)c1ccccc1 ?
output: 28

---

assay.details: ABTS method
condition.notes: 40 μM
Just a reminder that ties go to no: only ABTS % Scavenging strictly below 70% counts as yes.

Would you please look over these solved cases?
>>> discrete_label("C=CCN(c1nccs1)S(=O)(=O)c1ccc([N+](=O)[O-])cc1 [Compound 32]")
"no"
>>> discrete_label("COc1ccc(S(=O)(=O)N(Cc2ccccc2)c2nccs2)cc1 [Compound 20]")
"yes"
>>> discrete_label("CN(c1nccs1)S(=O)(=O)c1ccc(Br)cc1 [Compound 35]")
"yes"
>>> discrete_label("CN(c1nccs1)S(=O)(=O)c1ccc([N+](=O)[O-])cc1 [Compound 39]")
"no"
>>> discrete_label("C=CCN(c1nccs1)S(=O)(=O)c1ccc(C)cc1 [Compound 26]")
"no"

We now examine a further compound.
input: Determine whether this compound shows ABTS % Scavenging lower than 70% (ties excluded): C=CCN(c1nccs1)S(=O)(=O)c1ccc(F)cc1 [Compound 31]
output: yes

---

target.under.test: Bacillus Pasteurii urease (Sporosarcina pasteurii, UniProt P41020)
Sequence (P41020 whole entry): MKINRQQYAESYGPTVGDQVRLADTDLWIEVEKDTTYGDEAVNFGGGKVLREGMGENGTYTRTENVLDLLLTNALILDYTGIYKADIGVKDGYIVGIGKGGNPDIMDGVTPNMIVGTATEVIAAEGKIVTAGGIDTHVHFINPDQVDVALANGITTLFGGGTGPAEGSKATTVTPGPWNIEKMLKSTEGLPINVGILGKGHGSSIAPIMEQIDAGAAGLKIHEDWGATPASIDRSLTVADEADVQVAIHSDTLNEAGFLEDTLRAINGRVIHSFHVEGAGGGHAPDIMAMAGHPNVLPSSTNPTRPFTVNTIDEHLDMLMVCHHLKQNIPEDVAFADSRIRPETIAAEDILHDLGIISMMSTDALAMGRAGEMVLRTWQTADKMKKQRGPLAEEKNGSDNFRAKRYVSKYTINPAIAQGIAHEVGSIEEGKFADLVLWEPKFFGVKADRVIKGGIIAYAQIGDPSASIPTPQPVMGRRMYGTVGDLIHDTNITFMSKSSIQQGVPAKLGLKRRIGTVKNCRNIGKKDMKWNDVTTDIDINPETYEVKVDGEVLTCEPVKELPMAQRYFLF
Sequence (P41021 whole entry partner): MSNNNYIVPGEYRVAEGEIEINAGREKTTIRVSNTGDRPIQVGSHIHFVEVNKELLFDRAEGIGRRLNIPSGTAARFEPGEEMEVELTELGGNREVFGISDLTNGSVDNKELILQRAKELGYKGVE
Sequence (P41022 whole entry partner): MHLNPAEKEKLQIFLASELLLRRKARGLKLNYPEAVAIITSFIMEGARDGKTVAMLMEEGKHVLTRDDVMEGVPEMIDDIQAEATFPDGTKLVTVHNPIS
assay.details: Urease inhibition assay
Type: biochemical
condition.notes: Enzyme (SEM ±) B.P Urease, IC50, mean ± SEM, 3 experiments
Consider the reported IC50 of an entry and match it to a band in low group = under 30 µM, middle group = from 30 µM up to 40 µM, high group = 40 µM and over

input: Using the reported IC50, which band applies to C=CCN(c1nccs1)S(=O)(=O)c1ccc(OC)cc1 ?
output: low group

input: Using the reported IC50, which band applies to CN(c1nccs1)S(=O)(=O)c1ccc([N+](=O)[O-])cc1 ?
output: high group

input: Using the reported IC50, which band applies to C=CCN(c1nccs1)S(=O)(=O)c1ccccc1 ?
output: low group

input: Using the reported IC50, which band applies to C=CCN(c1nccs1)S(=O)(=O)c1ccc(Cl)cc1 ?
output: middle group

input: Using the reported IC50, which band applies to Cc1ccc(S(=O)(=O)N(Cc2ccccc2)c2nccs2)cc1 ?
output: low group

input: Using the reported IC50, which band applies to Cc1ccc(S(=O)(=O)N(C)c2nccs2)cc1 ?
output: low group

input: Using the reported IC50, which band applies to O=S(=O)(c1ccc(Br)cc1)N(Cc1ccccc1)c1nccs1 ?
output: low group

input: Using the reported IC50, which band applies to C=CCN(c1nccs1)S(=O)(=O)c1ccc(C)cc1 ?
output: middle group

input: Using the reported IC50, which band applies to CN(c1nccs1)S(=O)(=O)c1ccc(F)cc1 ?
output: low group

input: Using the reported IC50, which band applies to O=[N+]([O-])c1ccc(S(=O)(=O)N(Cc2ccccc2)c2nccs2)cc1 ?
output: high group

input: Using the reported IC50, which band applies to C=CCN(c1nccs1)S(=O)(=O)c1ccc(F)cc1 ?
output: high group

input: Using the reported IC50, which band applies to C=CCN(c1nccs1)S(=O)(=O)c1ccc(Br)cc1 ?
output: middle group

input: Using the reported IC50, which band applies to CN(c1nccs1)S(=O)(=O)c1ccccc1 ?
output: low group

input: Using the reported IC50, which band applies to CN(c1nccs1)S(=O)(=O)c1ccc(Cl)cc1 ?
output: low group

input: Using the reported IC50, which band applies to CN(c1nccs1)S(=O)(=O)c1ccc(Br)cc1 ?
output: low group
